Below are IC50 values measured for HIF-PHD2 (Homo sapiens (Human)).
Hi! Could you send only the number? It should be in µM, unit omitted.

Observe how each entry below is paired with its result.
# COMPOUND, IC50, µM
records = [
    ("O=C(O)CNC(=O)c1c(O)c2cccc(-c3ccc(F)c(F)c3)c2oc1=O [Example 25]", 0.15),
    ("O=C(O)CNC(=O)c1c(O)c2ccc(-c3cccnc3)cc2oc1=O [Example 33]", 0.2),
]

// returns reported IC50 for input O=C(O)CNC(=O)c1c(O)c2ccc(Oc3ccccc3)cc2oc1=O [Example 34]
0.15

---

// endpoint IC50 / system HIF-PHD2 (Homo sapiens (Human))
Respond with the bare value in nM.

# GIVEN_SMILES, STUDY_TARGET, IC50 [nM]
rows = [
    ("O=C(O)CNC(=O)c1c(O)c2ccc(-c3ccc(F)c(F)c3)cc2oc1=O", "HIF-PHD2 (Homo sapiens (Human))", 150),
    ("O=C(O)CNC(=O)c1c(O)c2ccc(-c3ccccc3Cl)cc2oc1=O", "HIF-PHD2 (Homo sapiens (Human))", 150),
    ("O=C(O)CNC(=O)c1c(O)c2ccc(-c3ccc(Cl)cc3)cc2oc1=O", "HIF-PHD2 (Homo sapiens (Human))", 150),
]

Okay, next one:
Which IC50 value belongs to `O=C(O)CNC(=O)c1c(O)c2cc(Br)ccc2oc1=O` ?
700
